Please go through the items and note down their stoichiometry N.
systemUnderTest: T1, TOFU-6 RRM domain (TOFU-6^RRM, residues 2-92) (C. elegans, UniProt Q09293 2-92)
T1 construct: TOFU-6, C. elegans, RRM domain, residues 2-92; source: E. coli BL21(DE3), purified (Ni-NTA, TEV cleavage, second Ni-NTA); not shown: His tag (inferred from the Ni-NTA purification), N-terminal, cleaved
T1 sequence (looked up): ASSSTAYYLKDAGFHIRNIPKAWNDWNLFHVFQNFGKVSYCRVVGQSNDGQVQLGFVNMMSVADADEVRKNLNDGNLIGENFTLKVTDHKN
assayComment: ITC; MicroCal ITC200, 25 °C; 20 mM Tris pH 8.5, 200 mM NaCl or 20 mM MES pH 6.5, 200 mM NaCl; 1-2 mM protein or peptide in the syringe titrated into 30-50 μM protein in the cell; one-site model; Kd mean ± SD of a minimum of two experiments
cond: both partners purified
Give bare numbers.

* PICS-1^RRM Y250A/Q251A (domain or fragment, C. elegans, UniProt O76616 201-282, looked up, Cloned into pET28-MHL; also called Y250A/Q251A(PICS-1RRM); source: E. coli BL21(DE3), purified (Ni-NTA, TEV cleavage, second Ni-NTA); not shown: His tag (inferred from the Ni-NTA purification), N-terminal, cleaved) QENMLKISGYPGMLNTFGIAQLLTPYRVNGITITGAQSAVVALENKFQVAAAVQDFNGKKLDRNHKLQVSSLVVSSPAVPLE | 1.2
* PICS-1(PID-3) RRM domain (PICS-1^RRM, residues 201-282) (domain or fragment, C. elegans, UniProt O76616 201-282, looked up, Homodimer by gel filtration and in the crystal structure; The methods describe co-expression with TOFU-6^RRM from pETDuet-1 for the complex; the results say that the two domains were purified each for ITC; also called WT; source: E. coli BL21(DE3), purified (Ni-NTA, TEV cleavage, second Ni-NTA, gel filtration); not shown: His tag (inferred from the Ni-NTA purification), N-terminal, cleaved) QENMLKISGYPGMLNTFGIAQLLTPYRVNGITITGAQSAVVALENKFQVYQAVQDFNGKKLDRNHKLQVSSLVVSSPAVPLE | 1.1
* PICS-1^RRM K246A/F247A (domain or fragment, C. elegans, UniProt O76616 201-282, looked up, Cloned into pET28-MHL; Some legends and the strain list print K245A/F246A for the transgene; also called K246A/F247A(PICS-1RRM); source: E. coli BL21(DE3), purified (Ni-NTA, TEV cleavage, second Ni-NTA); not shown: His tag (inferred from the Ni-NTA purification), N-terminal, cleaved) QENMLKISGYPGMLNTFGIAQLLTPYRVNGITITGAQSAVVALENAAQVYQAVQDFNGKKLDRNHKLQVSSLVVSSPAVPLE | 1.1

Fill in the blank: the reported stoichiometry N of PICS-1^RRM F217E (domain or fragment, C. elegans, UniProt O76616 201-282, looked up, Cloned into pET28-MHL; also called F217E(PICS-1RRM); source: E. coli BL21(DE3), purified (Ni-NTA, TEV cleavage, second Ni-NTA, gel filtration); not shown: His tag (inferred from the Ni-NTA purification), N-terminal, cleaved) QENMLKISGYPGMLNTEGIAQLLTPYRVNGITITGAQSAVVALENKFQVYQAVQDFNGKKLDRNHKLQVSSLVVSSPAVPLE is ____.
0.7
